Data origin, for the record: paper PMC5378893

- Target Under Test: T1, extracellular domain (ECD) of human epidermal growth factor receptor 2 (HER2) (Homo sapiens, UniProt P04626)
- T1 construct: human epidermal growth factor receptor 2 (HER2), extracellular domain; also called HER2/ECD
- Experiment Summary: SPR; BIAcore T200; HER2/ECD immobilised on a CM5 chip by amine coupling to 1000 RU; IgG flowed in PBST (0.05% Tween 20) at 30 uL/min; regeneration 10 mM glycine pH 1.5; global fit to a 1:1 binding model
- Protocol Conditions: both partners purified
Value Type: koff (s⁻¹)
# number only, unit s⁻¹ dropped from output

Worked examples follow.
# Binder, koff / s⁻¹
data = [
    ("GH2-66 IgG (antibody, V domains shown, source: HEK293-F, transient transfection, purified (Protein A, Superdex 200)) VH: EVQLVESGGGLVQPGGSLRLSCAASGFTIGNWGIHWVRQAPGKGLEWVAYIWPYWGFTYYADSVKGRFTISADTSKNTAYLQMNSLRAEDTAVYYCARFLDWNLLWMDYWGQGTLVTVSS VL: DIQMTQSPSSLSASVGDRVTITCRASQDVYSYVAWYQQKPGKAPKLLISYASGLYSGVPSRFSGSGSGTDFTLTISSLQPEDFATYYCQQYYNSPITFGQGTKVEIK", 0.328),
    ("GH2-60 IgG (antibody, V domains shown, source: HEK293-F, transient transfection, purified (Protein A, Superdex 200)) VH: EVQLVESGGGLVQPGGSLRLSCAASGFTISDFGIHWVRQAPGKGLEWVAGIWPYWGYTYYADSVKGRFTISADTSKNTAYLQMNSLRAEDTAVYYCARFWNIYWNVMDYWGQGTLVTVSS VL: DIQMTQGPSSLSASVGDRVTITCRASQDVGSWVAWYQQKPGKAPKLLISSPPSLYSGVPSRFSGSGSGTDFTLTISSLQPEDFATYYCQQGFDSPITFGQGTKVEIK", 0.00556),
    ("M61 IgG (mouse anti-HER2/ECD) (antibody, V domains shown, mouse VL; L49~L53 YNAKT; L91~L96 HYGTPY; mouse VH; H50~H58 NFHPYNDDTK; H96~H100B NDGYYGA; recombinant IgG from a scFv of an immunized mouse's phage library; source: HEK293-F, transient transfection, purified (Protein A, Superdex 200)) VH: EVQLQQSGAELVKPGASVKMSCKAFGYTFTTYPIEWMKQNHGKSLEWIGNFHPYNDDTKYNEKFKGKAKLTVEKSSSTVYLELSRLTSDDSAVYYCARRNDGYYGAMDYWGQGTSVTVSS VL: DIKITQSPASLSASVGETVTITCRASENIYSYLAWYQQKQGKSPQLLVYNAKTLAEGVPSRFSGSGSGTQFSLKINSLQPEDFGSYYCQHHYGTPYTFGGGTKLELK", 0.0024),
    ("GH2-65 IgG (antibody, V domains shown, source: HEK293-F, transient transfection, purified (Protein A, Superdex 200)) VH: EVQLVESGGGLVQPGGSLRLSCAASGFTIDDWGIHWVRQAPGKGLEWVAWIWPYWGYTFYADSVKGRFTISADTSKNTAYLQMNSLRAEDTAVYYCARFLDWNNNWMDYWGQGTLVTVSS VL: DIQMTQSPSSLSASVGDRVTITCRASQDVSGWVAWYQQKPGKAPKLLISSASFLYSGVPSRFSGSGSGTDFTLTISSLQPEDFATYYCQQYYDFPVTFGQGTKVEIK", 0.0111),
    ("GH2-61 IgG (antibody, V domains shown, source: HEK293-F, transient transfection, purified (Protein A, Superdex 200)) VH: EVQLVESGGGLVQPGGSLRLSCAASGFTINNWGIHWVRQAPGKGLEWVAGIWPYGGYTYYADSVKGRFTISADTSKNTAYLQMNSLRAEDTAVYYCARFYNHHGGVMDYWGQGTLVTVSS VL: DIQMTQSPSSLSASVGDRVTITCRASQDVGSNVAWYQQKPGKAPKLLISWSTSLYSGVPSRFSGSGSGTDFTLTISSLQPEDFATYYCQQYGGWPITFGQGTKVEIK", 0.000104),
]

Lookup: Given GH2-23 IgG (antibody, V domains shown, source: HEK293-F, transient transfection, purified (Protein A, Superdex 200)) VH: EVQLVESGGGLVQPGGSLRLSCAASGFTINGGGIHWVRQAPGKGLEWVAFIGPFGGSTFYADSVKGRFTISADTSKNTAYLQMNSLRAEDTAVYYCARFFGGNIHVMDYWGQGTLVTVSS VL: DIQMTQSPSSLSASVGDRVTITCRASQDVFWGVAWYQQKPGKAPKLLISWSASLYSGVPSRFSGSGSGTDFTLTISSLQPEDFATYYCQQYFSFPFTFGQGTKVEIK , state its recorded koff.
Found: 0.00018

Lookup: Given GH2-87 IgG (antibody, V domains shown, source: HEK293-F, transient transfection, purified (Protein A, Superdex 200)) VH: EVQLVESGGGLVQPGGSLRLSCAASGFTISSYGIHWVRQAPGKGLEWVAGIGPFGGFTSYADSVKGRFTISADTSKNTAYLQMNSLRAEDTAVYYCARFLNIHLGWMDYWGQGTLVTVSS VL: DIQMTQSPSSLSASVGDRVTITCRASQDVNNSVAWYQQKPGKAPKLLIFGTRYLYSGVPSRFSGSGSGTDFTLTISSLQPEDFATYYCQQYYNYPLTFGQGTKVEIK , state its recorded koff.
Found: 0.00525

Lookup: Given GH2-40 IgG (antibody, V domains shown, source: HEK293-F, transient transfection, purified (Protein A, Superdex 200)) VH: EVQLVESGGGLVQPGGSLRLSCAASGFTINSWGIHWVRQAPGKGLEWVAWIGPYWGFTSYADSVKGRFTISADTSKNTAYLQMNSLRAEDTAVYYCARFDGHFDGVMDYWGQGTLVTVSS VL: DIQMTQSPSSLSASVGDRVTITCRASQDVNNGVAWYQQKPGKAPKLLISGTPWLYSGVPSRFSGSGSGTDFTLTISSLQPEDFATYYCQQYFDWPLTFGQGTKVEIK , state its recorded koff.
Found: 0.000217

Lookup: Given GH2-16 IgG (antibody, V domains shown, source: HEK293-F, transient transfection, purified (Protein A, Superdex 200)) VH: EVQLVESGGGLVQPGGSLRLSCAASGFTINNWGIHWVRQAPGKGLEWVAGIWPFGGYTYYADSVKGRFTISADTSKNTAYLQMNSLRAEDTAVYYCARFDYLNNGGMDYWGQGTLVTVSS VL: DIQMTQSPSSLSASVGDRVTITCRASQDVYSSVAWYQQKPGKAPKLLISYTSYLYSGVPSRFSGSGSGTDFTLTISSLQPEDFATYYCQQYYGGPMTFGQGTKVEIK , state its recorded koff.
Found: 0.000102

Lookup: Given GH2-18 IgG (antibody, V domains shown, source: HEK293-F, transient transfection, purified (Protein A, Superdex 200)) VH: EVQLVESGGGLVQPGGSLRLSCAASGFTISNWGIHWVRQAPGKGLEWVAGIWPYGGYTFYADSVKGRFTISADTSKNTAYLQMNSLRAEDTAVYYCARFNYLNLGGMDYWGQGTLVTVSS VL: DIQMTQSPSSLSASVGDRVTITCRASQDVNSNVAWYQQKPGKAPKLLIYWTTGLYSGVPSRFSGSGSGTDFTLTISSLQPEDFATYYCQQYLSGPITFGQGTKVEIK , state its recorded koff.
Found: 1.09e-05
